biological target: full-length beta-Catenin (Uniprot ID P35222) (Homo sapiens (Human)) (UniProt P35222); assay: fluorescence polarization competition; full-length beta-catenin, 5FAM-TCF4 10-53 probe as competitor
Sequence (P35222 whole entry): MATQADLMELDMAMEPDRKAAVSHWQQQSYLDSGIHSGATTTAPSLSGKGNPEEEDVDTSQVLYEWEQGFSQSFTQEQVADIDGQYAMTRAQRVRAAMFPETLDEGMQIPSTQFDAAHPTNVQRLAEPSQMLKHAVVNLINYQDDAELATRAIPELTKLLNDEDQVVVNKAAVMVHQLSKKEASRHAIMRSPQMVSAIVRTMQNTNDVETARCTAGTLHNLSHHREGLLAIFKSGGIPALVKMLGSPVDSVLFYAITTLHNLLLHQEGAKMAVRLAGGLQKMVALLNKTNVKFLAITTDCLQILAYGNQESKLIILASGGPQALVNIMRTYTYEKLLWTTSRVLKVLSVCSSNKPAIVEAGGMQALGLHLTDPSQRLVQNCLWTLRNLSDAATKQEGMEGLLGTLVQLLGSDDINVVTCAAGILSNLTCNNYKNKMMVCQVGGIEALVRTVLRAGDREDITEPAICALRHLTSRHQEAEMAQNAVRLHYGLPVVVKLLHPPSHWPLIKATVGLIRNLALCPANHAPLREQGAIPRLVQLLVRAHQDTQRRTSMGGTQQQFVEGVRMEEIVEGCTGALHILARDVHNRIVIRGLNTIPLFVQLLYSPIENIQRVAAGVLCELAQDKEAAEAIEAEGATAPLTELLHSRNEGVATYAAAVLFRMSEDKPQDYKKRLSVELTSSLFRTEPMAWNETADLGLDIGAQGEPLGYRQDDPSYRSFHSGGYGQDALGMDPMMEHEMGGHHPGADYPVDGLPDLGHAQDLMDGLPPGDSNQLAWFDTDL
Starred links: 1 amine or outer side, 2 acyl side, 3 side chain; linkers in the order of their positions; H or OH if unused. Positions of bridges follow the written chain, without caps; N, C: chain ends. Non-standard residues stand in square brackets, D forms with d. Primed or numbered codes have the meaning given here. PyrS2″ = (S)-3-amino-1-((pent-4-en-1-yloxy)carbonyl)pyrrolidine-3-carboxylic acid (stapling residue), C=CCCCOC(=O)N1CC[C@@](N[*:1])(C(=O)[*:2])C1; SPip2 = 4-amino-1-((pent-4-en-1-yloxy)carbonyl)piperidine-4-carboxylic acid, C=CCCCOC(=O)N1CCC(N[*:1])(C(=O)[*:2])CC1; B5(25) = 2-amino-2-(pent-4-en-1-yl)hept-6-enoic acid (stitching residue), C=CCCCC(CCCC=C)(N[*:1])C(=O)[*:2]; B5 = 2-amino-2-(pent-4-en-1-yl)hept-6-enoic acid, C=CCCCC(CCCC=C)(N[*:1])C(=O)[*:2]; Phe(3-COOH) = N[C@@H](Cc1cccc(C(=O)O)c1)C(=O)O; Phe(2-CF3) = N[C@@H](Cc1ccccc1C(F)(F)F)C(=O)O; Bta = N[C@@H](Cc1csc2ccccc12)C(=O)O; αAllylPro = C=CC[C@@]1(C(=O)O)CCCN1; tBuAla = CC(C)(C)C[C@H](N)C(=O)O; 3Thi = N[C@@H](Cc1ccsc1)C(=O)O; R5 = C=CCCC[C@@](C)(N)C(=O)O
readout_type: IC50

Some entries whose results are on file:
binder | IC50
Ac-[αAllylPro]D[tBuAla][B5]D[Phe(3-COOH)]QAFL[SPip2][3Thi][Bta]A-NH2 (staple 1-4; staple 4-11 (inferred); also: later-eluting HPLC staple isomer composition) [I-2593] | 27 nM
Ac-P[R5]ED[tBuAla][B5(25)]D[Phe(3-COOH)]AAFL[PyrS2″][Phe(2-CF3)][Bta]Q-NH2 (staple 6-13, 2-6 (inferred); not fully specified; printed as Ac-Pro-R5-Glu-Asp-Npg-B5-Asp-3COOHF-Ala-Ala-Phe-Leu-PyrS2-2F3MeF-BztA-Gln-NH2) [I-2575] | 8160 nM

Attention now shifts to the item below.
### Prompt Assign IC50 to the following record: Ac-[αAllylPro]D[tBuAla][B5]D[Phe(3-COOH)]QAFL[SPip2][Phe(2-CF3)][Bta]A-NH2 (staple 1-4, 4-11; not fully specified; printed as Ac-PL3-Asp-Npg-B5-Asp-3COOHF-Gln-Ala-Phe-Leu-SPip2-2F3MeF-BztA-Ala-NH2; also: later-eluting staple isomer composition) [I-2586]
### Response 345 nM
